Molecular target: HDAC10 (Homo sapiens (Human))
Sequence (Q969S8 whole entry): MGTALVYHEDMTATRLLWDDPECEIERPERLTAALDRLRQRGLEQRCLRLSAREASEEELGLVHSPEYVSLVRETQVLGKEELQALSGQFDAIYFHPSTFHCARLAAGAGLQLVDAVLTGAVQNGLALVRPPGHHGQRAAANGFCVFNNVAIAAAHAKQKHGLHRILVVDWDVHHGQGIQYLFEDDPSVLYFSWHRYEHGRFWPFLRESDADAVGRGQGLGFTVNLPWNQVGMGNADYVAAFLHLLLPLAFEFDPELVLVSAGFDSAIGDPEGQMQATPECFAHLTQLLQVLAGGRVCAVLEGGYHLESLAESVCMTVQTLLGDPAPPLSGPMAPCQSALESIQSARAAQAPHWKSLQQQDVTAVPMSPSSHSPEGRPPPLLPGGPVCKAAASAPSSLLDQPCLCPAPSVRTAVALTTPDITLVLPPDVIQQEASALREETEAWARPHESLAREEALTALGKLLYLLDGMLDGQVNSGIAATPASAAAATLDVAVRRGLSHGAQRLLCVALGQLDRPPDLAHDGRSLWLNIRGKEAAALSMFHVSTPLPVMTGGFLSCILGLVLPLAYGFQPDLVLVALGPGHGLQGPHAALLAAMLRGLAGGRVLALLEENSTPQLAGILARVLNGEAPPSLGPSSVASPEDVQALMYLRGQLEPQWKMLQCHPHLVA
pIC50: −log10 of the molar value.

MOLECULE: O=C(NO)c1cccc(Nc2nc3cc(Cl)c(Cl)cc3o2)c1 [HDTK010]
pIC50: < 5.00

* * *

Target: HDAC1 (Homo sapiens (Human), UniProt Q13547)
Sequence (Q13547 whole entry): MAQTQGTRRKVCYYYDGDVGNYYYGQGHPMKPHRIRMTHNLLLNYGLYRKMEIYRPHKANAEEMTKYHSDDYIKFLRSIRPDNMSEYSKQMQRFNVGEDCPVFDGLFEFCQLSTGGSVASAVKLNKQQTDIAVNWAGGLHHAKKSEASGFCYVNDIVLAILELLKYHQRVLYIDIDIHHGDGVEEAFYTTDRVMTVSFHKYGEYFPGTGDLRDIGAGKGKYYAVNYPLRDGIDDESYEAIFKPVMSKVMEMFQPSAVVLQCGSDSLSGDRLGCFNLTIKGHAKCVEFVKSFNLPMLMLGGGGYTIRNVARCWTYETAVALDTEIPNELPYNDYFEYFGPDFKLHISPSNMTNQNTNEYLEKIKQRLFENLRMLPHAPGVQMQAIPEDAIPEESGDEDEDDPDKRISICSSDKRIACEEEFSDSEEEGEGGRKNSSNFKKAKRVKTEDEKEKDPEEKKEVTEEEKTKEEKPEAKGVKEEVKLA
pIC50: −log10 of the molar value.
VALUE_KIND: pIC50

SMILES: O=C(NO)c1cccc(Nc2nc3cc(Cl)c(Cl)cc3o2)c1
TARGET_DESC: HDAC1 (Homo sapiens (Human), UniProt Q13547)
VALUE_KIND: pIC50
VALUE: < 5.00

* * *

Quick note: these are IC50 numbers for system: HDAC2 (Homo sapiens (Human), UniProt Q92769)
Sequence (Q92769 whole entry): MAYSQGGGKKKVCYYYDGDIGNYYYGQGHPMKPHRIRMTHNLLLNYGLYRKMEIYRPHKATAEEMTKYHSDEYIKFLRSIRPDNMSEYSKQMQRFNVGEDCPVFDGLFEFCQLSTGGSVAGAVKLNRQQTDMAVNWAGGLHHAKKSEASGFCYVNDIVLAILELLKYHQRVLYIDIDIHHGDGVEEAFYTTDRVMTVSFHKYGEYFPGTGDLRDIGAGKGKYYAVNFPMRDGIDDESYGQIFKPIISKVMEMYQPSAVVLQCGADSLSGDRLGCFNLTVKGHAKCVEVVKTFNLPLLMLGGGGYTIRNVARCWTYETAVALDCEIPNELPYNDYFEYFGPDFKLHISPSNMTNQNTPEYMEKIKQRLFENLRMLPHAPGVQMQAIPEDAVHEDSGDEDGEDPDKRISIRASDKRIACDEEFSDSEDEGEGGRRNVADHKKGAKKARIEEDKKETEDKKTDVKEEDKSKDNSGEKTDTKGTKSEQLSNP

SMILES: O=C(NO)c1cccc(Nc2nc3cc(Cl)c(Cl)cc3o2)c1
IC50: > 10 µM

SMILES: O=C(NO)c1cccc2c1C[C@]1(CCN(Cc3ccc(Cl)c(C(F)(F)F)c3)C1=O)C2
IC50: > 10 µM
